Molecular target: T1, hIL-4Rα on cells (human, UniProt P24394 26-825)
T1 sequence: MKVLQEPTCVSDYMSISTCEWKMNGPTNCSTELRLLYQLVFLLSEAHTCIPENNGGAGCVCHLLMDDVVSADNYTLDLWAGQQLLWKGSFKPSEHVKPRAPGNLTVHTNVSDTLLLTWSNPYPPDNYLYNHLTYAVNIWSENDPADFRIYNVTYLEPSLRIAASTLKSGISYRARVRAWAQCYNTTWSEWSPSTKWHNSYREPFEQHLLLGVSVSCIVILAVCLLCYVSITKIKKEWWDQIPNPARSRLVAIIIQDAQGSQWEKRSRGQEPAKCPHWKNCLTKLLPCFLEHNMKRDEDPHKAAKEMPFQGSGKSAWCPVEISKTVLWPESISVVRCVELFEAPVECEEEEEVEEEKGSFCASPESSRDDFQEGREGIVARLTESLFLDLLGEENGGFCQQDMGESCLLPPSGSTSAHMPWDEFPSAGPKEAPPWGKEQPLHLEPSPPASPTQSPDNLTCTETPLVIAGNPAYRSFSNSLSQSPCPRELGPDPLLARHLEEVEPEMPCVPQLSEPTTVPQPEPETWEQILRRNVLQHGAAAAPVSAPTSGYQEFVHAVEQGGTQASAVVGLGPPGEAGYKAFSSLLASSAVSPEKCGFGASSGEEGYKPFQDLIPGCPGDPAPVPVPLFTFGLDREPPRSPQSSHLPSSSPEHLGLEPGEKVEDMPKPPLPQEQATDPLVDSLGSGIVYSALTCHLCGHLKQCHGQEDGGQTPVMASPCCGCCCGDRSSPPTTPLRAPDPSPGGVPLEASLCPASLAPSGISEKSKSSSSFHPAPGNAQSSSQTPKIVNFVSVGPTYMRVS
Test: cell-based or functional assay
Catalogue of Relative Inhibition of IL-13 induced TARC IC50 readings, one per entry.

Examples from the recorded data:
Construct 26 (mAb434) (antibody, IgG4, V domains shown, VH/VL only) VH: EVQLVESGGGLEQPGGSLRLSCAGSGFTFRDFAMTWVRQAPGKGLEWVSSISGGGGSTYYADSVKGRFTISRDNSKNTLYLQMNSLRAEDTAVYYCAKDRLSIAVRPRYYGLDVWGQGTTVTVSS VL: DIVMTQSPLSLPVTPGEPASISCTASQSLLYSIGYNYVDWYLQKSGQSPQLLIYLGNKRASGVPDRFSGSGSGTDFTLKISRVEAEDVGFYYCMQSLTSPYTFGQGTKLEIK | 1.73 relative to dupilumab
Construct 16 (mAb424) (antibody, IgG4, V domains shown, VH/VL only) VH: EVQLVESGGGLEQPGGSLRLSCAGSGFTFRTYAMTWVRQAPGKGLEWVSSISGSGDNIYYADSVKGRFTISRDNSKNTLYLQMNSLRAEDTAVYYCAKDRLSVTIRPRYYGLDVWGQGTTVTVSS VL: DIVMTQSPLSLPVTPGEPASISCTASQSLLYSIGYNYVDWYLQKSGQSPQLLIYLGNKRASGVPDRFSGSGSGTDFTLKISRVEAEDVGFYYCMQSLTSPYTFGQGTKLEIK | 1.03 relative to dupilumab

Given the binder Construct 13 (mAb422) (antibody, IgG4, V domains shown, VH/VL only) VH: EVQLVESGGGLEQPGGSLRLSCAGSGFTFRDFAMTWVRQAPGKGLEWVSSVSGSGGNTYYADSVKGRFTISRDNSKNTLYLQMNSLRAEDTAVYYCAKDRLSVTVRPRYYGLDVWGQGTTVTVSS VL: DIVMTQSPLSLPVTPGEPASISCRSSQSVLYSIGYNYVDWYLQKSGQSPQLLIYLGNKRASGVPDRFSGSGSGTDFTLKISRVEAEDVGFYYCMQSLTSPYTFGQGTKLEIK , write its reported Relative Inhibition of IL-13 induced TARC IC50.
1.01 relative to dupilumab
